Item-by-item account of abundance fitness
B1: Zinc finger MYM-type protein 2, residues 463 to 506; numbered along this chain, Q9UBW7 (parent)
chain: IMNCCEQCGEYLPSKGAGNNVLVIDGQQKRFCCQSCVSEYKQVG

Variants of: B1
PROTOCOL DESCRIPTION: abundance fitness (aPCA) (normalised: wild type 0, dead -1); higher = more abundant; growth selection in yeast, the domain comes from the species named
ASSAY CONDITIONS: Homo sapiens
Format: numeric value only, no unit, no commentary.

Look over these answered cases.
Q42N | 0.438
Y11G | 0.227
K29H | 0.051
C33L | -0.385
Q28Y | -0.305

Looking for the measured abundance fitness of Q42P , can you help?
-0.169

Looking for the measured abundance fitness of I24C , can you help?
-0.124
